FYI, the data here is from the RNAGym collection of RNA variant scans (doi:10.7554/elife.90254).

B1: OR4K15 (parent)
chain: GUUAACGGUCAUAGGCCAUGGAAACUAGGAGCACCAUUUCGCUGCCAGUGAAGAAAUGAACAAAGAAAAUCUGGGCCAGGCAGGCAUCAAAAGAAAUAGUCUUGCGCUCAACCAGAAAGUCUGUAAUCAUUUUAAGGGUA

Variants of: B1
Experiment: self-cleavage, relative activity (ratio to wild type); higher = more cleavage; in vitro, sequencing; the parent is a self-cleaving ribozyme
assayMetric: self-cleavage
Could you respond with only the numeric value?

Example results:
mutationLabel	self-cleavage
A36U U132C	1.2
A66U U120G	1.14
C34U A111G	0.04

Can you share its self-cleavage? I mean this variant: A66G A68G
0.62

What value of self-cleavage has been recorded for this entry: A92G G106A
0.02

Value lookup for self-cleavage; key = C101G U120C
0.03

Would you mind telling me what self-cleavage value was observed for C6U U132A ?
0.56

Recorded self-cleavage of A98U U120C , please.
1.65

Quick one: self-cleavage for U43C U49C ?
1.22

Data request, read-out self-cleavage, for A86G U108C
0.02
